Numbers sourced from PubChem BioAssay AID686978.

assay: qHTS for Inhibitors of human tyrosyl-DNA phosphodiesterase 1 (TDP1): qHTS in cells in absence of CPT; details: DT40 Tdp1-/- hTDP1 cells, no CPT, ATP luminescence, 48 h; further: nearly all actives have a fitted effect of over 55% in size
Hit rate of the full screen: of about 420,000 compounds, about 64,000 (15%) were called active. Inconclusive results (about 27%) are left out. The call rests on the fitted dose curve; in most records, active means well fitted inhibition curve with a large enough effect; inconclusive means small, poorly fitted or top-dose-only effect; inactive means flat fitted curve, though single readings scatter. These entries were drawn from the full list.
Classes used: 1 (active), 0 (inactive)

- compound: "O=C1COc2c1ccc(O)c2O"
  classLabel: 0
- compound: "CCOC(=O)CSc1nccc(N(C)C)c1C#N"
  classLabel: 0
- compound: "CCOC(=O)c1nnn2c1nc(N1CCN(c3ccccc3)CC1)c1ccccc12"
  classLabel: 1
- compound: "Cc1cc(C)cc(NC(=O)N2CCC(NC(=O)c3ccc(F)cc3)CC2)c1"
  classLabel: 0
- compound: "CC(C)(Oc1ccc(Cl)cc1)C(=O)OCC(=O)NCCc1ccc(S(N)(=O)=O)cc1"
  classLabel: 0
- compound: "CCOc1ccc(CN2CCN(Cc3c[nH]c4ccccc34)CC2)cc1"
  classLabel: 1
- compound: "Cc1cc2ncn(CCCCOc3ccccc3)c2cc1C"
  classLabel: 1
- compound: "Cc1cc(S(=O)(=O)NCC(C)C)ccc1OCC(=O)NC1CC1"
  classLabel: 0
- compound: "COc1ccc2ccn(C)c2c1"
  classLabel: 0
- compound: "Cc1cc(C)c2c(=O)n3c(nc2c1)C(CC(C)C)NC(=O)c1cc2ccccc2cc1-3 (stereo not given)"
  classLabel: 1
- compound: "O=C(NCCc1c[nH]c2ccccc12)C(=O)NCC1CCCO1 (stereo not given)"
  classLabel: 0
- compound: "CCOC(=O)c1nnn2c3ccccc3c(=O)n(C)c12"
  classLabel: 0
- compound: "COc1cccc(NC(=O)C(Sc2nnnn2C)c2ccccc2)c1 (stereo not given)"
  classLabel: 0
- compound: "CCOc1ccc(C(=O)N(Cc2ccc(N(C)C)cc2)C2CCS(=O)(=O)C2)cc1 (stereo not given)"
  classLabel: 0
- compound: "Cc1c(C(=O)N(Cc2ccccc2)Cc2cccnc2)cnn1-c1ccc(F)cc1"
  classLabel: 0
- compound: "O=c1c2ccccc2ncn1CCCCOc1ccccc1F"
  classLabel: 0
- compound: "O=c1n(Cc2cccc(C(F)(F)F)c2)c2ccccc2c2nc(-c3ccccc3)nn12"
  classLabel: 1
- compound: "CNC(=S)N/N=C/c1ccc(OCc2ccccc2)c(Br)c1"
  classLabel: 1
- compound: "O=C1NC(Cc2ccccc2)c2nc3ccc(Br)cc3c(=O)n2-c2cc3ccccc3cc21 (stereo not given)"
  classLabel: 1
- compound: "COc1ccc(OCCCn2c(C)nc3cc(C)c(C)cc32)cc1"
  classLabel: 1
- compound: "Cc1ccccc1CS(=O)(=O)CC1(O)CCN(C(=O)c2cccc(C(F)(F)F)c2)CC1"
  classLabel: 0
- compound: "O=C(NCCc1c[nH]c2ccccc12)C1CCN(Cc2ccc(Br)cc2)CC1"
  classLabel: 1
- compound: "CC(C)C(=O)Nc1c2c(nn1-c1ccccc1)CSC2"
  classLabel: 0
- compound: "C=CCNC(=S)N/N=C/c1ccc(OCc2ccccc2)cc1"
  classLabel: 0
- compound: "CCOC(=O)c1c(NC(=O)/C=C/c2ccco2)sc(C)c1C"
  classLabel: 0
- compound: "CCOc1ccc(CC(=O)NC2CCN(Cc3ccccc3)CC2)cc1"
  classLabel: 0
- compound: "CCC1NC(=O)c2cccnc2-n2c1nc1ccc(C)cc1c2=O (stereo not given)"
  classLabel: 0
- compound: "Cc1ccc(N(Cc2cc(=O)[nH]c3ccccc23)C(=O)CCl)cc1"
  classLabel: 1
- compound: "COc1ccccc1-c1c(C#N)c(N)nc2c1CCC2"
  classLabel: 0
- compound: "CC(=O)N(Cc1cc(=O)[nH]c2ccccc12)c1ccc(C)cc1C"
  classLabel: 0
- compound: "Cc1ccc2c(c1)c1ncnc(N3CCc4ccccc4C3)c1n2C"
  classLabel: 1
- compound: "Cc1ccc(S(=O)(=O)Nc2nc3ccccc3nc2N2CCc3ccccc3C2)cc1"
  classLabel: 0
- compound: "COc1ccc(S(=O)(=O)N2CCOCC2)c(C)c1C"
  classLabel: 0
- compound: "Cc1cc(N2CCN(c3cccc(C(F)(F)F)c3)CC2)n2nc(-c3ccccc3)nc2n1"
  classLabel: 0
- compound: "Cc1cc(-c2n[nH]c(=S)n2-c2ccc(C)c(C)c2)no1"
  classLabel: 0
- compound: "COc1ccccc1C(=O)NNC(=O)CCN1C(=O)/C(=C\\c2ccccc2)SC1=S"
  classLabel: 0
- compound: "O=C(N/N=C/c1cccc(OCc2ccccc2)c1)c1ccc(Br)o1"
  classLabel: 0
- compound: "CCOC(=O)c1ccc(COC(=O)c2cc(=O)[nH]c3ccccc23)o1"
  classLabel: 0
- compound: "NCCCCCC(=O)N/N=C/c1ccc2nccnc2c1"
  classLabel: 0
- compound: "Cc1ccn(C(CC(=O)c2ccc(Br)cc2)C(=O)O)n1 (stereo not given)"
  classLabel: 0
- compound: "COc1cc(/C=C/C(=O)OCC(=O)NCCCc2ccccc2)ccc1O"
  classLabel: 0
- compound: "CC1CC(C)(C)NC(=S)N1CCC(=O)N1CCN(Cc2ccccc2)CC1 (stereo not given)"
  classLabel: 0
- compound: "COc1ccc(C(=O)Oc2ccc(-c3nnco3)cc2)cc1S(=O)(=O)N1CCOCC1"
  classLabel: 0
- compound: "Cc1cc(NC(=O)COC(=O)c2ccc(F)c(S(=O)(=O)N3CCOCC3)c2)no1"
  classLabel: 0
- compound: "CCOC(=O)c1ccc(NC(=O)C2CC(=O)Nc3nc4ccccc4n32)cc1 (stereo not given)"
  classLabel: 0

---

test: qHTS for Inhibitors of human tyrosyl-DNA phosphodiesterase 1 (TDP1): qHTS in cells in absence of CPT; conditions: DT40 Tdp1-/- hTDP1 cells, no CPT, ATP luminescence, 48 h; further: nearly all actives have a fitted effect of over 55% in size
Screen size: about 420,000 compounds; about 64,000 (15%) were called active. Roughly 27% stayed inconclusive and do not appear here. The call rests on the fitted dose curve; in most records, active means well fitted inhibition curve with a large enough effect; inconclusive means small, poorly fitted or top-dose-only effect; inactive means flat fitted curve, though single readings scatter. A selection follows.
Classes used: active, inactive

- testSmiles: "O=C(NCCC1=CCCCC1)c1ccc(-n2cncn2)cc1"
  classLabel: "inactive"
- testSmiles: "O=C(NCCC1=CCCCC1)c1ccc(Cl)c([N+](=O)[O-])c1"
  classLabel: "active"
- testSmiles: "COC(=O)COc1ccc2c(=O)c(Oc3ccccc3Br)coc2c1"
  classLabel: "inactive"
- testSmiles: "O=C(Nc1cccnc1)c1ccc(Cl)c([N+](=O)[O-])c1"
  classLabel: "inactive"
- testSmiles: "Cn1nnc2cc(C(=O)NCCC3=CCCCC3)ccc21"
  classLabel: "inactive"
- testSmiles: "CN(C)c1ccc(-c2nnc(-c3cccnc3)o2)cc1"
  classLabel: "inactive"
- testSmiles: "Cc1ccnc(NC(=O)c2ccc(Cl)c([N+](=O)[O-])c2)c1"
  classLabel: "inactive"
- testSmiles: "C=CCn1nc(-c2ccccc2)c2c(C)onc2c1=O"
  classLabel: "inactive"
- testSmiles: "Cc1onc(-c2ccccc2)c1-c1nnc(COC(=O)c2ccc(N(C)C)cc2)o1"
  classLabel: "active"
- testSmiles: "Cc1ccc(F)cc1NC(=O)c1cccc(N(C)C)c1"
  classLabel: "inactive"
- testSmiles: "Cc1ccc(C(=O)NCC(=O)OCc2nnc(-c3ccccc3)o2)cc1"
  classLabel: "inactive"

---

assay: qHTS for Inhibitors of human tyrosyl-DNA phosphodiesterase 1 (TDP1): qHTS in cells in absence of CPT; conditions: DT40 Tdp1-/- hTDP1 cells, no CPT, ATP luminescence, 48 h; further: nearly all actives have a fitted effect of over 55% in size
The whole screen tested about 420,000 compounds, of which about 64,000 (15%) were called active. Roughly 27% stayed inconclusive and do not appear here. Calls come from the whole dose curve; as a rule, active = well fitted inhibition curve with a large enough effect; inconclusive = small, poorly fitted or top-dose-only effect; inactive = flat fitted curve, though single readings scatter. These entries were drawn from the full list.
Classes used: active, inactive

- compound: "CCOC(=O)C1CCCN(C(=O)Cn2ncc3c(C)n(Cc4ccc(F)cc4)c(C)c3c2=O)C1 (configuration not stated)"
  classLabel: "active"
- compound: "Cc1nn(-c2ccccc2)c(=O)c2noc(C)c12"
  classLabel: "inactive"
- compound: "Fc1cccc(/C=N\\N=C/c2cccc(F)c2)c1"
  classLabel: "inactive"
- compound: "COc1cc(C(=O)OCc2cc(=O)n3ccsc3n2)ccc1OC(C)C"
  classLabel: "active"
- compound: "CCOCCc1nn2c(=O)cc(CSCC(=O)Nc3cccc(C)c3C)nc2s1"
  classLabel: "inactive"
- compound: "CN(Cc1ccc(F)cc1Cl)S(=O)(=O)c1cccs1"
  classLabel: "inactive"
- compound: "CCc1ccc2oc(-c3ccc(C)c(NC(=O)/C=C/c4ccco4)c3)nc2c1"
  classLabel: "active"
- compound: "Cc1ccc(S(=O)(=O)c2nnn3c2nc(N2CCN(c4ccccc4F)CC2)c2cc(Cl)ccc23)cc1C"
  classLabel: "inactive"
- compound: "CCCS(=O)(=O)Nc1ccc(-c2cn3c(n2)SCC3)cc1"
  classLabel: "inactive"
- compound: "Cc1ccc(NC(=O)CSc2nc3ccccc3c3nc(CCn4cncc4C)nn23)cc1F"
  classLabel: "active"
- compound: "O=C1[C@H]2[C@@H](c3ccc(C(F)(F)F)cc3)N[C@]3(CCCN(Cc4ccc(Cl)cc4)C3=O)[C@H]2C(=O)N1Cc1ccccc1"
  classLabel: "active"
- compound: "CN(CC(=O)Nc1ccc(F)c(F)c1F)C(=O)C1CC(=O)N(C2CCCC2)C1 (configuration not stated)"
  classLabel: "inactive"
- compound: "CCCC(O)(c1ccc(OC)cc1)C(CN(C)C)c1ccccc1 (configuration not stated)"
  classLabel: "inactive"
- compound: "Cc1ccc(NC(=O)CCOc2ccccc2)cc1S(=O)(=O)Nc1ccccc1Cl"
  classLabel: "inactive"
- compound: "CN(C)C(CNC(=O)c1ccc(OCc2cn3ccccc3n2)cc1)c1ccco1 (configuration not stated)"
  classLabel: "inactive"
- compound: "O=C(CCN1C(=O)[C@H]2CC=CC[C@H]2C1=O)NCc1nc(-c2ccccc2)no1"
  classLabel: "inactive"
- compound: "CCCN1Cc2cccc(C(=O)NCc3ccccc3)c2C1=O"
  classLabel: "inactive"
- compound: "CC(C)CC[n+]1ccn(C2=C([O-])c3ccccc3C(=O)/C2=N\\S(=O)(=O)c2ccccc2)c1"
  classLabel: "active"
- compound: "O=c1c(F)cn(C2CCCO2)c(=O)n1Cc1ccccc1Cl (configuration not stated)"
  classLabel: "inactive"
- compound: "CCCCCC(=O)Nc1ccc(-c2cn3cccnc3n2)cc1"
  classLabel: "inactive"
- compound: "O=C(Nc1cccc(Br)c1)C1CC(=O)N(C2CCCC2)C1 (configuration not stated)"
  classLabel: "inactive"
- compound: "Cc1ccc(/C=C/C(=O)OCC(=O)NCc2ccc(Cl)cc2)o1"
  classLabel: "inactive"
- compound: "CCN1CCN(C(=O)CN(C)S(=O)(=O)c2ccc3ccccc3c2)CC1"
  classLabel: "inactive"
- compound: "COc1ccc([C@H]2N[C@]3(CCCN(Cc4ccco4)C3=O)[C@H]3C(=O)N(C)C(=O)[C@@H]23)cc1"
  classLabel: "inactive"
- compound: "Cc1cc(NC(=O)CS(=O)(=O)c2cn(C)c3ccccc23)no1"
  classLabel: "inactive"
- compound: "CCN1C(=O)[C@H]2[C@@H](c3ccc(C(F)(F)F)cc3)N[C@]3(CCCN(Cc4ccc(Br)cc4)C3=O)[C@H]2C1=O"
  classLabel: "active"
- compound: "COCCc1nn2c(=O)cc(COC(=O)c3cc(OC)c(OC)c(OC)c3)nc2s1"
  classLabel: "inactive"
- compound: "O=C(O)C1C2C=CC(C2)C1C(=O)N1CCN(CCO)CC1 (configuration not stated)"
  classLabel: "inactive"
- compound: "O=C(NCc1ccco1)C(c1ccncc1)N(C(=O)Cn1nnc2ccccc21)c1ccccc1 (configuration not stated)"
  classLabel: "inactive"
- compound: "Oc1ccccc1-c1nc(/C=C/c2ccc(F)cc2)no1"
  classLabel: "inactive"
- compound: "CCNC(=O)NNC(=O)C1CC(c2cccs2)=NO1 (configuration not stated)"
  classLabel: "inactive"
- compound: "C[n+]1cccc(C(=O)O)c1"
  classLabel: "inactive"
- compound: "CCC(=O)c1c[nH]c(C(=O)NCC2CCCO2)c1 (configuration not stated)"
  classLabel: "inactive"
- compound: "CC1(C)S[C@@H]2[C@H](NC(=O)COc3ccccc3)C(=O)N2C1C(=O)OCc1ccccc1 (some centres not stated)"
  classLabel: "inactive"
- compound: "O=C(C1CCN(C2CCN(Cc3ccc4cc(F)ccc4n3)CC2)CC1)N1CCCC1"
  classLabel: "inactive"
- compound: "COc1cc(NC(=O)CN2CCN(S(=O)(=O)c3ccc(Br)cc3)CC2)cc(OC)c1"
  classLabel: "inactive"
- compound: "COc1ccc(Br)cc1CN(C)C(=O)C1CC(=O)N(C2CCCC2)C1 (configuration not stated)"
  classLabel: "active"
- compound: "COc1ccc(Cl)cc1NC(=O)CSc1nc2ccccc2c2nc(-c3ccccc3)nn12"
  classLabel: "inactive"
- compound: "CC1=C(C(=O)OC2CCCCC2)C(c2ccccc2F)NC(=O)N1 (configuration not stated)"
  classLabel: "inactive"
- compound: "CCNC(=S)N1CCN(C(=O)c2ccco2)CC1"
  classLabel: "inactive"
- compound: "O=C(O)c1ccc(N/N=C/c2ccc3ncccc3c2)cc1"
  classLabel: "inactive"
- compound: "CCN1C[C@@H]2[C@@H]3C(=O)N(Cc4ccccc4)C(=O)[C@@H]3[C@](C)(C1=O)N2C(=O)c1ccc(C(C)(C)C)cc1"
  classLabel: "inactive"
